assay: self-splicing fitness, log relative to wild type (ln ratio); higher = more splicing; Tetrahymena group I intron in knt gene, E. coli kanamycin selection, DiMSum; sequences stand for … in CUCUCU…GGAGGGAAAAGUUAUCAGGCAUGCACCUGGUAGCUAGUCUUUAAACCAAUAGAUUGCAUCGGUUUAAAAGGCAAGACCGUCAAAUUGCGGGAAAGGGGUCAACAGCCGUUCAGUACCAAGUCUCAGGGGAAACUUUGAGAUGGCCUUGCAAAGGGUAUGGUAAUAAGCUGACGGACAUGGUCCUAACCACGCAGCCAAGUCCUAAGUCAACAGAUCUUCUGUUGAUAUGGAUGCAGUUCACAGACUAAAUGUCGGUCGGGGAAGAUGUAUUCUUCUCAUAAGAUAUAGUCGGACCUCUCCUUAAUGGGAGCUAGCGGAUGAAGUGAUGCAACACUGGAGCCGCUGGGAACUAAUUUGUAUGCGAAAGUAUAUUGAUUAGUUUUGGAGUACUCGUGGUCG; settings: 37 °C;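 further: selection with 25 µg/mL kanamycin versus none on LB agar overnight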
PROPERTY NAME: self-splicing fitness (ln)
Respond using a number only.

Here's what some known entries look like.
[
  {
    "RECORD SEQUENCE": "UGGUAGCAAUAUUACGCCGU",
    "self-splicing fitness (ln)": -1.42
  },
  {
    "RECORD SEQUENCE": "AUAGAGCAAUAUUACGCUAA",
    "self-splicing fitness (ln)": -0.315
  },
  {
    "RECORD SEQUENCE": "GGACAGCAAUAUUACGUUAA",
    "self-splicing fitness (ln)": 0.00356
  },
  {
    "RECORD SEQUENCE": "GAAUAGCAAUAUUACGAGCG",
    "self-splicing fitness (ln)": -0.354
  }
]

Qu. Value lookup for self-splicing fitness (ln); key = AGGCAGCAAUAUUACGAAUC
Ans. -2.07

Qu. Thanks! And CCGCAGCAAUAUUACGGACA ?
Ans. -2.57

Qu. Thanks! And GAAAAGCAAUAUUACGAUGU ?
Ans. -0.404

----------
This section presents sequences with their documented self-splicing fitness (ln) values.
assay: self-splicing fitness, log relative to wild type (ln ratio); higher = more splicing; Tetrahymena group I intron in knt gene, E. coli kanamycin selection, DiMSum; sequences stand for … in CUCUCU…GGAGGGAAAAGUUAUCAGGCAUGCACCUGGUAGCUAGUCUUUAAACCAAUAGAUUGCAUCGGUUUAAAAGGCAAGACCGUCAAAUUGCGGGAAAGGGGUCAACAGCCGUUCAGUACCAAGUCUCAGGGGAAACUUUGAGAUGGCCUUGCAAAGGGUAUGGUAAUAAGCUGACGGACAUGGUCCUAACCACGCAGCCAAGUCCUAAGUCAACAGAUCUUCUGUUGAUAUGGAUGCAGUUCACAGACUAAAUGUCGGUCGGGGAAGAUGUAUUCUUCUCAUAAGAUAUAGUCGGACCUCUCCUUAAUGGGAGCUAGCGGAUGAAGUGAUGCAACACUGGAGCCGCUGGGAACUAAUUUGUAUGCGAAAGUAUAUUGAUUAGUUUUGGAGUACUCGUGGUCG; settings: 37 °C
Respond using a number only.

[
  {
    "RECORD SEQUENCE": "CAACAGCAAUAUUACGGAAC",
    "self-splicing fitness (ln)": -3.48
  },
  {
    "RECORD SEQUENCE": "GUUUAGCAAUAUUACGCAGG",
    "self-splicing fitness (ln)": -2.04
  },
  {
    "RECORD SEQUENCE": "CAUCAGCAAUAUUACGGCAA",
    "self-splicing fitness (ln)": -2.1
  },
  {
    "RECORD SEQUENCE": "GUGAAGCAAUAUUACGCAUA",
    "self-splicing fitness (ln)": -0.0533
  },
  {
    "RECORD SEQUENCE": "GACUAGCAAUAUUACGGCGU",
    "self-splicing fitness (ln)": -0.198
  },
  {
    "RECORD SEQUENCE": "GAUCAGCAAUAUUACGAUCC",
    "self-splicing fitness (ln)": -2.18
  }
]

Qu. Value lookup for self-splicing fitness (ln); key = CUACAGCAAUAUUACGAAUA
Ans. -2.21
